// provenance: PubChem BioAssay

System: wheat germ agglutinin (Triticum aestivum), Alexa647-labelled
ASSAY_PROCEDURE: wheat germ agglutinin binders on compound microarrays, profiling panel, artefact control for SMM control-protein annotation, biochemical, small-molecule microarray, 635/667 nm fluorescence (AID 1140);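 further: score merges 667 nm feature emission with signal to noise over triplicate slides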
REPORTED_CONDITIONS: WGA-A647 binding, 635 nm fluorescence, higher = more signal
MEASUREMENT_NAME: composite z-score
Field format: numeric only.

Before answering, review these 10 worked examples.
{"columns": ["MOLECULE", "MEASUREMENT_NAME", "RECORDED_VALUE"],
 "data": [
  ["CCOC(=O)C1=C[C@@H](C(C)(C)C)N(S(=O)(=O)c2ccc(C)cc2)[C@H]1c1ccc(C)cc1", "composite z-score", 0.764],
  ["COC(=O)C1=CC(CCCO)=CC(c2ccc(CN3CCCC3)cc2)N(Cc2cc3c(cc2Br)OCO3)C=C1C(=O)OC (stereo unspecified)", "composite z-score", 1],
  ["C=C(CCCC)C(=O)CC[C@H](OC(C)=O)c1ccc(OCCO)cc1", "composite z-score", 0.359],
  ["[N-]=[N+]=NC[C@H](Cc1ccccc1)NC(=O)c1ccccc1", "composite z-score", 0.736],
  ["O=C(NCCN1CCOCC1)[C@@H]1c2ccccc2C(=O)N(Cc2ccccc2)[C@H]1c1ccc(CO)cc1", "composite z-score", -0.3],
  ["O=C1C[C@@](C(=O)NCc2ccccc2)(c2ccc([N+](=O)[O-])cc2)[C@@H](c2ccc(CO)cc2I)N1CC12CC3CC(CC(C3)C1)C2", "composite z-score", 1.07],
  ["COc1cc(NN2C(C(O)C3CCCCC3)C=CC3C(=O)N(C)C(=O)C32)cc(OC)c1OC (stereo unspecified)", "composite z-score", 1.16],
  ["COc1cc(C(O)C2C=CC3C(=O)N(Cc4ccccc4)C(=O)C3N2n2cnnc2)cc(OC)c1OC (stereo unspecified)", "composite z-score", 1.15],
  ["COCCOC(=O)N1C(=O)[C@@]2(c3cc(C#CCNC(N)=O)ccc31)[C@H](c1ccc(O)cc1)N1[C@H](c3ccccc3)[C@H](c3ccccc3)OC(=O)[C@H]1[C@@H]2C(=O)N1CCN(c2ncccn2)CC1", "composite z-score", 0.991],
  ["COCCCNC(=O)[C@@H]1c2ccccc2C(=O)N(C2Cc3ccccc3C2)[C@H]1c1ccc(CO)cc1", "composite z-score", -0.196]
]}

Per the records, this molecule ( CN1C(=O)[C@@H]2[C@@H](CC(COc3ccccc3)=C([C@H](O)CCc3ccccc3)[C@@H]2CO)C1=O ) has composite z-score equal to 0.488

----------
Item-by-item account of composite Z-score
ASSAY_PROCEDURE: small-molecule microarray binders of probe aXIP, primary screen, biochemical, NeuroSMM set, 635/667 nm fluorescence (AID 1119);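 further: probe is the protein aXip251-270 applied at 1 µg/mL to compound-printed slides; binding of probe to printed compounds measured as 667 nm fluorescence plus signal to noise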
REPORTED_CONDITIONS: higher = more signal, called active from +8 up or from −8 down
Lab note: jot the number down without any unit.

{"columns": ["MOLECULE", "composite Z-score"],
 "data": [
  ["O=C1c2ccccc2[C@](Cc2ccccc2I)(C(=O)NC2CC2)[C@H](c2ccc(CO)cc2)N1Cc1ccccc1C(F)(F)F", 0.0029]
]}

Entry under test: O=C1C2C=CC(C(O)C=Cc3ccc([N+](=O)[O-])cc3)N(Nc3ccccc3)C2C(=O)N1c1ccccc1 (centres undefined) . Its composite Z-score was 0.075

// recorded composite Z-score for CC(C)CNC(=O)[C@@H]1c2ccccc2C(=O)N(C2CCCCC2)[C@H]1c1ccc(CO)cc1 : 1.32

For this molecule ( NC(=O)NCC#Cc1ccc2c(c1)[C@]1(C(=O)N2)[C@H](C(=O)N2CCN(c3ncccn3)CC2)[C@H]2C(=O)O[C@H](c3ccccc3)[C@H](c3ccccc3)N2[C@@H]1c1ccc(OCCO)cc1 ), measured composite Z-score is 0.17
